Tested on: pigweed (Amaranthus retroflexus)
Assay: Test A postemergence, visual injury rating
Assay type: in vivo
Settings: 125 g ai/ha, 0 to 100 scale, 0 is no effect, 100 is complete control, approximately 10 days
Item-by-item account of Pigweed plant response rating
Number only, please.

In: Name the recorded Pigweed plant response rating of the item "O=C(CCCC(F)(F)F)c1c(Br)cccc1Oc1ncc(Cl)cn1" in your answer.
Out: 100

In: Name the recorded Pigweed plant response rating of the item "O=C(CCC(F)(F)F)c1c(Cl)cccc1Oc1ncc(Cl)cn1" in your answer.
Out: 100

In: Name the recorded Pigweed plant response rating of the item "O=C(OCC(F)(F)C(F)F)c1c(Br)cccc1Oc1ncc(Cl)cn1" in your answer.
Out: 100

---

Item-by-item account of Ryegrass, Italian plant response rating (0 to 100 scale)
Tested on: Italian ryegrass (Lolium multiflorum)
Experiment: Test A postemergence, visual injury rating
Assay type: in vivo
Settings: 125 g ai/ha, 0 is no effect, 100 is complete control
Number only, please.

Solved cases below.
[[record]]
molecule = "O=C(OCC(F)(F)F)c1c(F)cccc1Oc1ncc(Cl)cn1 [Compound 48]"
target_system = "Italian ryegrass (Lolium multiflorum)"
data_value = 0

[[record]]
molecule = "C=CC(C)COC(=O)c1c(Br)cccc1Oc1ncc(Cl)cn1 (stereo not shown) [Compound 37]"
target_system = "Italian ryegrass (Lolium multiflorum)"
data_value = 0

[[record]]
molecule = "O=C(OCCC(F)(F)F)c1c(F)cccc1Oc1ncc(Cl)cn1 [Compound 42]"
target_system = "Italian ryegrass (Lolium multiflorum)"
data_value = 0


In: Name the recorded Ryegrass, Italian plant response rating (0 to 100 scale) of the item N#Cc1cccc(Oc2ncc(Cl)cn2)c1C(=O)OCCC(F)(F)F [Compound 30] in your answer.
Out: 0

---

Test system: corn (Zea mays)
Experiment: Test A postemergence, visual injury rating
Assay type: in vivo
Conditions: 125 g ai/ha, 0 is no effect, 100 is complete control
PROPERTY_LABEL: Corn plant response rating (0 to 100 scale)
Number only, please.

[[record]]
compound = "O=C(SCCC(F)(F)F)c1c(Br)cccc1Oc1ncc(Cl)cn1"
target_system = "corn (Zea mays)"
data_value = 20

[[record]]
compound = "CC(C)=CCOC(=O)c1c(Br)cccc1Oc1ncc(Cl)cn1"
target_system = "corn (Zea mays)"
data_value = 0

[[record]]
compound = "N#Cc1ccc(Oc2ncc(Cl)cn2)c(C(=O)OCCC(F)(F)F)c1"
target_system = "corn (Zea mays)"
data_value = 0


In: Name the recorded Corn plant response rating (0 to 100 scale) of the item "CCCCC(=O)c1c(C#N)cccc1Oc1ncc(Cl)cn1" in your answer.
Out: 20

In: Name the recorded Corn plant response rating (0 to 100 scale) of the item "O=C(OCCCC(F)(F)F)c1c(Oc2ncc(Cl)cn2)cccc1C(F)(F)F" in your answer.
Out: 10

In: Name the recorded Corn plant response rating (0 to 100 scale) of the item "N#Cc1cccc(Oc2ncc(Cl)cn2)c1C(=O)OCC(F)(F)F" in your answer.
Out: 0

In: Name the recorded Corn plant response rating (0 to 100 scale) of the item C=CC(C)COC(=O)c1c(Br)cccc1Oc1ncc(Cl)cn1 (centres unmarked) in your answer.
Out: 10

In: Name the recorded Corn plant response rating (0 to 100 scale) of the item "CN(OCC(F)(F)F)C(=O)c1c(Br)cccc1Oc1ncc(Br)cn1" in your answer.
Out: 0

In: Name the recorded Corn plant response rating (0 to 100 scale) of the item "O=C(OCC(F)(F)F)c1c(Br)cccc1Oc1ncc(Cl)cn1" in your answer.
Out: 20

In: Name the recorded Corn plant response rating (0 to 100 scale) of the item "CCCC(=O)c1c(C#N)cccc1Oc1ncc(Cl)cn1" in your answer.
Out: 0

In: Name the recorded Corn plant response rating (0 to 100 scale) of the item "C#CCCOC(=O)c1c(Br)cccc1Oc1ncc(Cl)cn1" in your answer.
Out: 10

In: Name the recorded Corn plant response rating (0 to 100 scale) of the item "C=C(Cl)COC(=O)c1c(Br)cccc1Oc1ncc(Cl)cn1" in your answer.
Out: 20

In: Name the recorded Corn plant response rating (0 to 100 scale) of the item "O=C(OCC(F)(F)C(F)(F)F)c1c(F)cccc1Oc1ncc(Br)cn1" in your answer.
Out: 0

In: Name the recorded Corn plant response rating (0 to 100 scale) of the item O=C(OCC1CC1(F)F)c1c(Br)cccc1Oc1ncc(Cl)cn1 (centres unmarked) in your answer.
Out: 10
